B1: Gamma-crystallin S, residues 96 to 176; numbered along this chain, P22914 (parent)
chain: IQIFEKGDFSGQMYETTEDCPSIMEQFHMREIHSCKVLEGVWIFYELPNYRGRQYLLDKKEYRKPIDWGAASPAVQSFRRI

- Variants of: B1
- experimentDescription: abundance fitness (aPCA) (normalised: wild type 0, dead -1); higher = more abundant; growth selection in yeast, the domain comes from the species named
- conditionParameters: Homo sapiens
metric: abundance fitness
Note: the reply should be a number with no unit written.

Solved entries:
   mutationannotation  measuredvalue
0                S10P         -0.733
1                I32F           0.09

Query: Please report the recorded abundance fitness for `A71L` .
Reply: -0.223

Query: Please report the recorded abundance fitness for `T16I` .
Reply: -0.055

Query: Please report the recorded abundance fitness for `Y14A` .
Reply: 0.049

Query: Please report the recorded abundance fitness for `T17N` .
Reply: -0.02

Query: Please report the recorded abundance fitness for `Y62G` .
Reply: -0.075
